test: amyloid nucleation score (Sup35N fusion, yeast selection) (log enrichment); library NNK1; higher = more nucleation; inactive = no reads after selection;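 further: zero at mode of non-aggregating sequences after 7 days selection at 30°C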
Items are presented alongside their recorded amyloid nucleation score.

{"columns": ["residueSequence", "amyloid nucleation score"],
 "data": [
  ["YSLVICNQNSFPNMVDIVLG", 2.53],
  ["HKSILVDVILSHFSSCSRCH", 5.3],
  ["CDGNHSRSLRLIDLGPGF", -0.558],
  ["RRSSILVNTGYPDLGYVMGD", -1.18],
  ["CDNRRNFSSWVVDISKYITI", -0.946],
  ["EVRSQSNEYHLRNWCVYK", 1.31],
  ["NLVWSYFLLGTDSYITTYDW", 0.314],
  ["AGSEVFEK", 0.073],
  ["GLSWYCGHLAKR", 1.48],
  ["LVMFEIKLMRFNFTMRSVRR", 2.91],
  ["KDVLVRFMYLG", -0.21],
  ["DWGERRLSRFNGAYSVVTMV", 0.599],
  ["VHFQYFLMLKLAQFVVVWNK", 0.669],
  ["FIFHSIGRSKISYKS", -0.229],
  ["VSCWRTVRTAF", 0.893],
  ["VNRYEVPLLGRRHDCEFSRT", -0.806],
  ["VMSATVSSFWTEVCRMRTVT", 1.14]
]}
